# EXPERIMENTAL_SYSTEM: FPPS (Homo sapiens, UniProt P14324)
# Sequence (P14324 1-419): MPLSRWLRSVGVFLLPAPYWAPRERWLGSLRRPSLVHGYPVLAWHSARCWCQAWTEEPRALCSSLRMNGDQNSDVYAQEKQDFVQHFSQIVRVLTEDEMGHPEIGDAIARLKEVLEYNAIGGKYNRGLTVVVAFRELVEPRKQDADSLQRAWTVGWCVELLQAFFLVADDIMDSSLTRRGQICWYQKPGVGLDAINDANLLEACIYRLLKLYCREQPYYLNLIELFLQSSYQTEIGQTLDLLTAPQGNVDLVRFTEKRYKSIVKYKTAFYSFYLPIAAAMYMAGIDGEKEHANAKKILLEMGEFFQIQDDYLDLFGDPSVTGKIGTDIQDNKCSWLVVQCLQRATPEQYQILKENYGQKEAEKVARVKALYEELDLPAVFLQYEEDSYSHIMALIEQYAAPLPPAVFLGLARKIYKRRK
# ASSAY_NOTES: FPPS activity assay
# Format: biochemical
# Set-up: endogenous in cells; host or cells: HGPS MSCs (cell lysate)
# TEST_SETTINGS: concentration inducing 50% of the maximum inhibiting effect of the compound
Form field: IC50 (one value per entry).
ENDPOINT_NAME: IC50 (µM)

N#CC(c1ccccn1)c1ccnc(N2CCC(O)(Cc3ccccc3)CC2)n1 (stereo not drawn) [Mono-AP3]; 5.54
N#CC(c1ccncc1)c1cc(N2CCN(C(=O)c3cccs3)CC2)ncn1 (stereo not drawn) [Mono-AP2]; 1.82
N#CC(c1ccccn1)c1ccnc(N2CCN(Cc3ccccc3F)CC2)n1 (stereo not drawn) [Mono-AP1]; 1.55

---

Form field: Kd (one value per entry).
# EXPERIMENTAL_SYSTEM: FPPS (Homo sapiens, UniProt P14324)
# ASSAY_NOTES: Surface plasmon resonance on immobilized FPPS
# Type: binding
# TEST_SETTINGS: SPR, BIAcore 3000, 25° C.; read-out: Kd (M), equilibrium dissociation constant
ENDPOINT_NAME: Kd (M)

N#CC(c1ccccn1)c1ccnc(N2CCN(Cc3ccccc3F)CC2)n1 (centres unmarked); 2.4e-05
N#CC(c1ccncc1)c1cc(N2CCN(C(=O)c3cccs3)CC2)ncn1 (centres unmarked); 0.0002
